Target: BMX kinase (Etk) (Homo sapiens)
Construct: CEREP, France (ran the assays)
Sequence (P51813 whole entry): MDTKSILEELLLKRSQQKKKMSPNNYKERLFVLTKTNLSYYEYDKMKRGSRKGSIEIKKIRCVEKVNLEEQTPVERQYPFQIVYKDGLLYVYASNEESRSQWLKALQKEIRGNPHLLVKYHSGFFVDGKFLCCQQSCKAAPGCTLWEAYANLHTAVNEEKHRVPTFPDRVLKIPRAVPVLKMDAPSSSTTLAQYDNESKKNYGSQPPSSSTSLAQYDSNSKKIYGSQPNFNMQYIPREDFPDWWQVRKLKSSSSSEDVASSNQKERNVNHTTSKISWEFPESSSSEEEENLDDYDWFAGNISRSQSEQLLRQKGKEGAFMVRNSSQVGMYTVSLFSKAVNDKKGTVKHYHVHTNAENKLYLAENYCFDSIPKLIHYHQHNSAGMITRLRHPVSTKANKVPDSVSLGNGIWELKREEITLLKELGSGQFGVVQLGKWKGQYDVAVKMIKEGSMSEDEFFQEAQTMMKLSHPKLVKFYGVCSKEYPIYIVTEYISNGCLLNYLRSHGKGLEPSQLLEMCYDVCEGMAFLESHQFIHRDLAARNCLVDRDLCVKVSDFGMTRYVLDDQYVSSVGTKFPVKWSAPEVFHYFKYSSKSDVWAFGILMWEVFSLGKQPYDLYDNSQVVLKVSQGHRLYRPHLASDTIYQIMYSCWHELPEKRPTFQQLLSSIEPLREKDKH
Assay: Kinase Selectivity Assay (CEREP, HTRF)
Assay type: biochemical
Conditions: read-out: % Inhibition at 10 μM Concentration, BMX (Etk)
measurement_label: inhibition at 10 µM (%)

molecule: O=C1Nc2ccccc2/C1=C\c1ccc2cn[nH]c2c1
measurement_label: inhibition at 10 µM
unit_of_measure: %
experimental_result: -3
//
molecule: COc1ccc2c(c1)C(=Cc1ccc3c(-c4ccc(N5CCN(C)CC5)nc4)n[nH]c3c1)C(=O)N2 (mixture of isomers)
measurement_label: inhibition at 10 µM
unit_of_measure: %
experimental_result: 9
//
molecule: O=C1Nc2ccccc2C1=Cc1ccc2c(/C=C/c3ccccn3)n[nH]c2c1 (mixture of isomers)
measurement_label: inhibition at 10 µM
unit_of_measure: %
experimental_result: 53
//
molecule: O=C1Nc2ccccc2/C1=C\c1ccc2c(/C=C/c3ccccc3Cl)n[nH]c2c1
measurement_label: inhibition at 10 µM
unit_of_measure: %
experimental_result: 18

Just for reference, patent US8765748B2 is where these values come from.
